# Test system: A. thaliana cell suspensions
# Assay name: In vivo labeling of A. thaliana cell suspensions with D-[U-14C]Man and L-AA determination
# Assay type: cell-based, Arabidopsis thaliana
# Assay context: pre-incubated 20 hours with 2.5 mM compound, labeled two hours with D-[U-14C]Man
Recorded metric: [^14C]-labeled L-AA

Summary for this compound, O=C[C@@H](O)[C@@H](O)[C@H](O)[C@@H](O)CO [L-Gulose, L-gulose] : [^14C]-labeled L-AA is 872 10^−3 × cpm/mg fw

Summary for this compound, O=C1O[C@H]([C@@H](O)CO)C(O)=C1O [L-AA, L-ascorbic acid] : [^14C]-labeled L-AA is 448 10^−3 × cpm/mg fw

Summary for this compound, O=C1O[C@H]([C@@H](O)CO)[C@@H](O)[C@@H]1O [L-galactono-1,4-lactone] : [^14C]-labeled L-AA is 790 10^−3 × cpm/mg fw

Summary for this compound, O=C[C@@H](O)[C@H](O)[C@H](O)[C@@H](O)CO [L-galactose] : [^14C]-labeled L-AA is 423 10^−3 × cpm/mg fw

Summary for this compound, O=C1O[C@H]([C@@H](O)CO)[C@H](O)[C@@H]1O [L-Gulono-1,4-lactone, L-gulono-1,4-lactone] : [^14C]-labeled L-AA is 722 10^−3 × cpm/mg fw
